biological target: ADORA2A (Homo sapiens, UniProt P29274); construct: host or cells: HEK-293; assay: ADORA2A in vitro receptor assay, [3H]CGS-21680 radioligand binding; conditions: human recombinant HEK-293 cells, 0.05 μM [3H] CGS-21680
Sequence (P29274 whole entry): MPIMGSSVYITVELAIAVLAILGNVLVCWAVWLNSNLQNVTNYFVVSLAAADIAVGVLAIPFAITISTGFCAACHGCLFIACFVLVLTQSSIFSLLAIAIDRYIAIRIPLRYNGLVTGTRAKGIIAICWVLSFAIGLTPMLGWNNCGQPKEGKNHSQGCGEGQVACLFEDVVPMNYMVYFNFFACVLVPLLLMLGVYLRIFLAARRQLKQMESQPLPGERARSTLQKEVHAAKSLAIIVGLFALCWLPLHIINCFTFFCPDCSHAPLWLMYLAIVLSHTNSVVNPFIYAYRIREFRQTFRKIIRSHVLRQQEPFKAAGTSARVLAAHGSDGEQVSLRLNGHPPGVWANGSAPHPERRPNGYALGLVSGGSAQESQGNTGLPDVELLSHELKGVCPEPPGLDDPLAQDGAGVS
Property Measured: inhibition at 10 µM (%)

C=CC1C(OC(=O)c2ccccc2)C2C(O)(C(=O)C1(C)O)C(OC(C)=O)CC1C(C)(C)C(OC(C)=O)C(OC(C)=O)C(OC(=O)c3ccccc3)C12C (stereo not drawn) [[8], Staminol A] = 42
C=C[C@@]1(C)C[C@@H](OC(=O)c2ccccc2)[C@H]2[C@](O)(C1=O)[C@H](OC(C)=O)C[C@H]1C(C)(C)[C@H](O)[C@H](OC(C)=O)[C@H](OC(=O)c3ccccc3)[C@@]12C [[4], Orthosiphol A] = 42
C=C[C@@]1(C)C[C@@H](OC(=O)c2ccccc2)[C@@H]2[C@@]3(C)C=C(OC(C)=O)C(=O)C(C)(C)[C@@H]3C[C@@H](OC(C)=O)[C@@]2(O)C1=O [[5], Orthosiphol D] = 52
